Each recorded value in this set is attributed to ChEMBL document CHEMBL5500344.

- System: L02
- Experimental details: Antiproliferative activity against human L02 cells assessed as inhibition of cell growth incubated for 48 hrs by MTT assay
- Format: functional, cell-based
- Settings: L02, 48 h
pIC50: −log10 of the molar value.
Recorded measurements of pIC50, one per entry
Quantity name: pIC50

1) O=C(OCC1c2ccccc2-c2ccccc21)N1C[C@@H]2CCCN3CCC[C@@H]([C@H]23)[C@H]1CCCc1nc2cc(Cl)c(Cl)cc2[nH]1 < 4.19
2) Cc1ccc(S(=O)(=O)N2C[C@@H]3CCCN4CCC[C@@H]([C@H]34)[C@H]2CCCc2nc3cc(Br)ccc3n2S(=O)(=O)c2ccc(C)cc2)cc1 < 4.19
3) O=S(=O)(c1ccc(C(F)(F)F)cc1)N1C[C@@H]2CCCN3CCC[C@@H]([C@H]23)[C@H]1CCCc1nc2cc(Cl)ccc2n1S(=O)(=O)c1ccc(C(F)(F)F)cc1 < 4.19

---

Recorded measurements of IC50, one per entry
- Test system: HeLa
- Experimental details: Antiproliferative activity against human HeLa cells assessed as inhibition of cell growth incubated for 48 hrs by MTT assay
- Assay type: functional, cell-based
Quantity name: IC50 (µM)

1) O=S(=O)(c1ccc(Br)cc1)N1C[C@@H]2CCCN3CCC[C@@H]([C@H]23)[C@H]1CCCc1nc2cc(Cl)ccc2n1S(=O)(=O)c1ccc(Br)cc1 59.6
2) O=C(OCC1c2ccccc2-c2ccccc21)N1C[C@@H]2CCCN3CCC[C@@H]([C@H]23)[C@H]1CCCc1nc2cc(Cl)c(Cl)cc2[nH]1 8.46
3) Cn1c(CCC[C@@H]2[C@H]3CCCN4CCC[C@@H](CN2C(=O)OCC2c5ccccc5-c5ccccc52)[C@@H]34)nc2ccc([N+](=O)[O-])cc21 23.8

---

Recorded measurements of pIC50, one per entry
- Test system: A549
- Experimental details: Antiproliferative activity against human A549 cells assessed as inhibition of cell growth incubated for 48 hrs by MTT assay
- Assay type: functional, cell-based
- Settings: A549, 48 h
pIC50: −log10 of the molar value.

Molecule	pIC50
CC(C)(C)c1ccc(S(=O)(=O)N2C[C@@H]3CCCN4CCC[C@@H]([C@H]34)[C@H]2CCCc2nc3ccccc3n2S(=O)(=O)c2ccc(C(C)(C)C)cc2)cc1	4.22
CCc1c2c(nc3ccc(OC(=O)N4CCC(N5CCCCC5)CC4)cc13)-c1cc3c(c(=O)n1C2)COC(=O)[C@]3(O)CC [IRINOTECAN]	5.21
O=S(=O)(c1ccc(Br)cc1)N1C[C@@H]2CCCN3CCC[C@@H]([C@H]23)[C@H]1CCCc1nc2ccc(Cl)cc2n1S(=O)(=O)c1ccc(Br)cc1	4.17
O=C1CCC[C@@H]2[C@H]3CCCN4CCC[C@@H](CN12)[C@@H]34 [MATRINE]	2.23
CC(C)(C)c1ccc(S(=O)(=O)N2C[C@@H]3CCCN4CCC[C@@H]([C@H]34)[C@H]2CCCc2nc3ccc(Cl)cc3n2S(=O)(=O)c2ccc(C(C)(C)C)cc2)cc1	4.17
O=S(=O)(c1ccc(C(F)(F)F)cc1)N1C[C@@H]2CCCN3CCC[C@@H]([C@H]23)[C@H]1CCCc1nc2cc(Cl)ccc2n1S(=O)(=O)c1ccc(C(F)(F)F)cc1	4.24
CC(C)(C)c1ccc(S(=O)(=O)N2C[C@@H]3CCCN4CCC[C@@H]([C@H]34)[C@H]2CCCc2nc3ccc([N+](=O)[O-])cc3n2S(=O)(=O)c2ccc(C(C)(C)C)cc2)cc1	4.16
O=S(=O)(c1ccc(Cl)cc1)N1C[C@@H]2CCCN3CCC[C@@H]([C@H]23)[C@H]1CCCc1nc2ccc(Cl)cc2n1S(=O)(=O)c1ccc(Cl)cc1	4.34
Cc1ccc(S(=O)(=O)N2C[C@@H]3CCCN4CCC[C@@H]([C@H]34)[C@H]2CCCc2nc3ccccc3n2S(=O)(=O)c2ccc(C)cc2)cc1	4.16
Cc1ccc(S(=O)(=O)N2C[C@@H]3CCCN4CCC[C@@H]([C@H]34)[C@H]2CCCc2nc3ccc(Br)cc3n2S(=O)(=O)c2ccc(C)cc2)cc1	4.91
O=C(CCC[C@@H]1[C@H]2CCCN3CCC[C@@H](CN1C(=O)OCC1c4ccccc4-c4ccccc41)[C@@H]23)NCCCc1nc2ccc(F)cc2[nH]1	4.93

---

- Test system: A549
- Experimental details: Antiproliferative activity against human A549 cells assessed as inhibition of cell growth incubated for 48 hrs by MTT assay
- Assay type: functional, cell-based
- Settings: A549, 48 h
Recorded measurements of IC50, one per entry
Quantity name: IC50 (µM)

1) O=C(CCC[C@@H]1[C@H]2CCCN3CCC[C@@H](CN1C(=O)OCC1c4ccccc4-c4ccccc41)[C@@H]23)NCCCc1nc2ccc(C(F)(F)F)cc2[nH]1 18.7
2) O=C(OCC1c2ccccc2-c2ccccc21)N1C[C@@H]2CCCN3CCC[C@@H]([C@H]23)[C@H]1CCCc1nc2ccc(Br)cc2[nH]1 20.8
3) O=C(CCC[C@@H]1[C@H]2CCCN3CCC[C@@H](CN1C(=O)OCC1c4ccccc4-c4ccccc41)[C@@H]23)Nc1nc2ccccc2[nH]1 12.3
4) C[C@]1(c2nc3c(C(N)=O)cccc3[nH]2)CCCN1 15.2
5) O=S(=O)(c1ccc(Cl)cc1)N1C[C@@H]2CCCN3CCC[C@@H]([C@H]23)[C@H]1CCCc1nc2cc(Cl)ccc2n1S(=O)(=O)c1ccc(Cl)cc1 68.3
6) CC(C)(C)c1ccc(S(=O)(=O)N2C[C@@H]3CCCN4CCC[C@@H]([C@H]34)[C@H]2CCCc2nc3cc([N+](=O)[O-])ccc3n2S(=O)(=O)c2ccc(C(C)(C)C)cc2)cc1 62.8

---

Recorded measurements of IC50, one per entry
- Tested on: HeLa
- Experimental details: Antiproliferative activity against human HeLa cells assessed as inhibition of cell growth incubated for 48 hrs by MTT assay
- Type: functional, cell-based
Quantity name: IC50

1) O=C(CCC[C@@H]1[C@H]2CCCN3CCC[C@@H](CN1C(=O)OCC1c4ccccc4-c4ccccc41)[C@@H]23)NCCCc1nc2ccc(C(F)(F)F)cc2[nH]1 13.2 µM
2) O=S(=O)(c1ccc(C(F)(F)F)cc1)N1C[C@@H]2CCCN3CCC[C@@H]([C@H]23)[C@H]1CCCc1nc2ccc(Cl)cc2n1S(=O)(=O)c1ccc(C(F)(F)F)cc1 > 80 µM
3) O=C(OCC1c2ccccc2-c2ccccc21)N1C[C@@H]2CCCN3CCC[C@@H]([C@H]23)[C@H]1CCCc1nc2ccc(C(F)(F)F)cc2n1C(=O)OCC1c2ccccc2-c2ccccc21 21.2 µM
4) CC(C)(C)c1ccc(S(=O)(=O)N2C[C@@H]3CCCN4CCC[C@@H]([C@H]34)[C@H]2CCCc2nc3ccccc3n2S(=O)(=O)c2ccc(C(C)(C)C)cc2)cc1 55.6 µM
5) O=C(OCC1c2ccccc2-c2ccccc21)N1C[C@@H]2CCCN3CCC[C@@H]([C@H]23)[C@H]1CCCc1nc2ccc(C(F)(F)F)cc2[nH]1 25.5 µM

---

Recorded measurements of pIC50, one per entry
- Tested on: A549
- Experimental details: Antiproliferative activity against human A549 cells assessed as inhibition of cell growth incubated for 48 hrs by MTT assay
- Type: functional, cell-based
- Settings: A549, 48 h
pIC50: −log10 of the molar value.
Quantity name: pIC50

1) O=C(OCC1c2ccccc2-c2ccccc21)N1C[C@@H]2CCCN3CCC[C@@H]([C@H]23)[C@H]1CCCc1nc2cc(Br)c(Br)cc2[nH]1 5.02
2) Cc1ccc(S(=O)(=O)N2C[C@@H]3CCCN4CCC[C@@H]([C@H]34)[C@H]2CCCc2nc3ccc([N+](=O)[O-])cc3n2S(=O)(=O)c2ccc(C)cc2)cc1 4.13

---

Recorded measurements of IC50, one per entry
- Tested on: HeLa
- Experimental details: Antiproliferative activity against human HeLa cells assessed as inhibition of cell growth incubated for 48 hrs by MTT assay
- Assay type: functional, cell-based
Quantity name: IC50 (µM)

1) O=S(=O)(c1ccc(C(F)(F)F)cc1)N1C[C@@H]2CCCN3CCC[C@@H]([C@H]23)[C@H]1CCCc1nc2cc(Cl)ccc2n1S(=O)(=O)c1ccc(C(F)(F)F)cc1 62.4
2) O=C(OCC1c2ccccc2-c2ccccc21)N1C[C@@H]2CCCN3CCC[C@@H]([C@H]23)[C@H]1CCCc1nc2ccccc2n1C(=O)OCC1c2ccccc2-c2ccccc21 16.6
3) Cc1ccc(S(=O)(=O)N2C[C@@H]3CCCN4CCC[C@@H]([C@H]34)[C@H]2CCCc2nc3ccccc3n2S(=O)(=O)c2ccc(C)cc2)cc1 49.6
4) O=C1CCC[C@@H]2[C@H]3CCCN4CCC[C@@H](CN12)[C@@H]34 6750
